Attribution: patent US8969565B2

In this section we review reported pIC50 values for a set of compounds.
Target: AAK1 (Homo sapiens)
Construct: HA; expressed in transfected cells; host or cells: HEK293F
Sequence (Q2M2I8 1-863 isoform Q2M2I8-2): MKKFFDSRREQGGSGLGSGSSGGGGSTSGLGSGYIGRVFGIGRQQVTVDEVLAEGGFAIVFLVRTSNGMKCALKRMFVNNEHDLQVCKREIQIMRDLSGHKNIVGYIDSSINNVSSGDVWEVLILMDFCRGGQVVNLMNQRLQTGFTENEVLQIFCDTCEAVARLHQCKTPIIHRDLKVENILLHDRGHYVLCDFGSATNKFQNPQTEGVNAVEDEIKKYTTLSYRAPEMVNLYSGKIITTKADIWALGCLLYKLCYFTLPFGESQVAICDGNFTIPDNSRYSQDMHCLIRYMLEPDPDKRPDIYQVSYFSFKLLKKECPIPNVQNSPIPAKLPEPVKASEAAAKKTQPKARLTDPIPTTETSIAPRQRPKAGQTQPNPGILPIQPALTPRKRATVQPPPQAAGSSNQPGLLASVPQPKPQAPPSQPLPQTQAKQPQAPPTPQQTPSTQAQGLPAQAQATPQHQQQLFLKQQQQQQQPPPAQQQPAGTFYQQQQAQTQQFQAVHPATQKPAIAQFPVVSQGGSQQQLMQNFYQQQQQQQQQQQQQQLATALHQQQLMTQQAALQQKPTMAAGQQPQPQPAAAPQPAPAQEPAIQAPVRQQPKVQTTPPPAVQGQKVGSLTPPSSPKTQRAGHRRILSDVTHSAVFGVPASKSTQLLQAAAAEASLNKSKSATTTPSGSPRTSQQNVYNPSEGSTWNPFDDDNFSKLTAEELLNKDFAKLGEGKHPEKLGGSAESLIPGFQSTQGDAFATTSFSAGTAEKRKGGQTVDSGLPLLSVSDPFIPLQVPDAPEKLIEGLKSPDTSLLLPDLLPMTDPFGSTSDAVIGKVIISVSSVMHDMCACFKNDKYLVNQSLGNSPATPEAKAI
Assay: HEK281 cell-based assay (phospho-mu2 Western blot in transfected HEK293F cells)
Conditions: 3 hours incubation, read-out: CBA IC50
pIC50: −log10 of the molar value.

A selection of reference data follows.
CCCCNc1ccc2ncc(-c3ccc(C(=O)NCCN4CCCC4)cc3)n2n1 :: ≥ 7.00
CC(C)(C)CCN1C(=O)CC[C@H]1CNc1ccc2ncc(-c3ccccc3)n2n1 :: ≥ 6.00
CC(C)(C)OCCCNc1ccc2ncc(-c3ccnc(N)c3)n2n1 :: ≥ 6.00
COc1ncccc1-c1cnc2ccc(N3CC[C@H](N(C)C(=O)OC(C)(C)C)C3)nn12 :: ≥ 7.00
CCCCNc1ccc2ncc(-c3ccc4c(c3)CNC4)n2n1 :: ≥ 6.00
O=C(N1CCCC1)N1CCN(c2ccc3ncc(-c4ccccn4)n3n2)CC1 :: ≥ 7.00
CNC(=O)c1ccc(-c2cnc3ccc(NCCN(C(=O)OC(C)C)C(C)C)nn23)cc1 :: ≥ 7.00
NCc1ccc(-c2cnc3ccc(NCCCc4ccccc4F)nn23)cc1 :: ≥ 7.00

Value of measured pIC50 for the entry CCC(C)CNc1ccc2ncc(-c3ccc(CN)cc3)n2n1 (stereo not shown) : ≥ 6.00

Value of measured pIC50 for the entry CC(C)(C)CC(=O)N1CCC[C@H]1CNc1ccc2ncc(-c3ccc(CN)cc3)n2n1 : ≥ 7.00
